tested on: IGROV1 ovarian; test: NCI tumour cell line growth inhibition, 48 h
Below is a list of entries, each paired with its recorded TGI value.

molecule: CCOC(=O)CC[C@H](N)C(=O)N[C@H](Cc1ccc(N(CCCl)CCCl)cc1)C(=O)OCC
TGI: 9.37 µM
//
molecule: O=C(CCl)Nc1cc(O)c2c(c1)C(=O)c1cccc(O)c1C2=O
TGI: 3.13 µM
//
molecule: COc1cc2c(cc1OCCCCCOc1cc3c(cc1OC)C(=O)N1CCC[C@H]1CN3)N=C[C@@H]1CCCN1C2=O
TGI: 21.3 µM
//
molecule: Nc1c(-c2nc3ccccc3[nH]2)sc(=S)n1-c1ccc(Cl)cc1
TGI: 73.2 µM
//
molecule: c1ccc(CCn2cncn2)cc1
TGI: > 100 µM
//
molecule: C1C[OH+]CC[OH+]CC[OH+]CC[OH+]CC[OH+]CC[OH+]1.[Cl-].[Nb+5]
TGI: > 100 µM
//
molecule: CCOC(=O)/C(C#N)=C/Nc1ccc(-c2nc3ccccc3[nH]2)cc1
TGI: > 100 µM
//
molecule: NS(=O)(=O)c1ccc(NC(=O)Nc2ccccc2F)cc1
TGI: > 100 µM
//
molecule: C#CCCCC(=O)N(C(=O)CS(=O)CC)c1ccccc1 (stereo not given)
TGI: > 100 µM
//
molecule: CC(=O)OCC1OC(N2C(S)=C(C#N)C(c3ccco3)C(C(C)=O)=C2c2ccccc2)C(OC(C)=O)C(OC(C)=O)C1OC(C)=O (stereo not given)
TGI: > 100 µM

###

test system: SNB-75 CNS; test: NCI tumour cell line growth inhibition, 48 h
Below is a list of entries, each paired with its recorded TGI value.

molecule: CC[C@H](C)C1=C(OC(C)=O)[N@+]2([O-])Oc3ccc(-c4c(OC(C)=O)c(OC(C)=O)c(-c5ccc(OC(C)=O)cc5)c(OC(C)=O)c4OC(C)=O)cc3O[C@]2([C@@H](C)CC)C(=O)N1OC(C)=O
TGI: 39.5 µM

molecule: Cn1ccnc1C[N-]Cc1nccn1C.O=[N+]([O-])[O-].O=[N+]([O-])[O-].[Cu+2]
TGI: > 100 µM

molecule: CC(C)(C)C(=O)OCc1nc2cc3c(cc2c(=O)[nH]1)CCC3=O
TGI: > 100 µM

molecule: NC(=O)N/N=C(/c1nc2ccc([N+](=O)[O-])cc2[nH]c1=O)C(O)c1ccco1 (centres undefined)
TGI: > 100 µM

molecule: CC(C)N(C(C)C)P(OCCC#N)OC1CC(n2cnc3c(=O)[nH]cnc32)OC1COC(=O)NCCCCCCNC(=O)OC(C)(C)c1ccc(-c2ccccc2)cc1 (centres undefined)
TGI: 53.7 µM

molecule: COc1ccc2c(c1)-c1[nH]c3ccccc3c1CC2
TGI: 28.9 µM

molecule: O=C1C[C@H](c2ccc(O)c(O)c2)Oc2cc(O)cc(O)c21
TGI: > 100 µM

molecule: O=C1OC(=O)C2C1C(c1ccccc1[N+](=O)[O-])C=C(c1ccco1)N2c1ccncc1 (centres undefined)
TGI: 35.2 µM

molecule: CCN1CCNc2c3cc(OC)ccc3nc3c([N+](=O)[O-])ccc1c23
TGI: 4.38 µM

###

test system: LOX IMVI melanoma; assay: NCI tumour cell line growth inhibition, 48 h
observable: TGI

compound: NS(=O)(=O)c1ccc(NC(=O)Nc2ccccc2F)cc1
target-entity: LOX IMVI melanoma
assay-value: > 100 µM
--
compound: CC(C)N(C(C)C)P(OCCC#N)OC1CC(n2cnc3c(=O)[nH]cnc32)OC1COC(=O)NCCCCCCNC(=O)OC(C)(C)c1ccc(-c2ccccc2)cc1 (stereo not drawn)
target-entity: LOX IMVI melanoma
assay-value: 32.7 µM
--
compound: Oc1ccc(Cl)cc1-c1cc(-c2ccc(F)cc2)n[nH]1
target-entity: LOX IMVI melanoma
assay-value: 3.55 µM
--
compound: O=C1C[C@H](c2ccc(O)c(O)c2)Oc2cc(O)cc(O)c21
target-entity: LOX IMVI melanoma
assay-value: > 100 µM
--
compound: C1C[OH+]CC[OH+]CC[OH+]CC[OH+]CC[OH+]CC[OH+]1.[Cl-].[Nb+5]
target-entity: LOX IMVI melanoma
assay-value: > 100 µM
--
compound: CC[C@H](C)C1=C(OC(C)=O)[N@+]2([O-])Oc3ccc(-c4c(OC(C)=O)c(OC(C)=O)c(-c5ccc(OC(C)=O)cc5)c(OC(C)=O)c4OC(C)=O)cc3O[C@]2([C@@H](C)CC)C(=O)N1OC(C)=O
target-entity: LOX IMVI melanoma
assay-value: 22.1 µM
--
compound: CCN(CC)CCC(=O)c1ccc(Oc2ccc(F)cc2)cc1
target-entity: LOX IMVI melanoma
assay-value: 28.8 µM
--
compound: CC(=O)O[C@H]1C=CC23OC(=O)[C@]1(C)[C@H]2[C@H](C(=O)O)C12CC(=O)[C@@](CO)(CC[C@H]13)C2
target-entity: LOX IMVI melanoma
assay-value: > 100 µM

###

tested on: HOP-92 NSCLC; experiment: NCI tumour cell line growth inhibition, 48 h
Below is a list of entries, each paired with its recorded TGI value.
observable: TGI (µM)

compound: COc1ccccc1NS(=O)(=O)c1ccc2ncn(NS(=O)(=O)c3ccc(Cl)cc3)c(=O)c2c1
rel: >
assay-value: 100
//
compound: Cc1ccc(S(=O)OC23CC4CC(CC(C4)C2)C3)cc1 (stereo unspecified)
rel: >
assay-value: 100
//
compound: OC(COc1cccc2ccccc12)CN1CCN(c2ccccc2Cl)CC1 (stereo unspecified)
rel: =
assay-value: 16.8
//
compound: O=C1C[C@H](c2ccc(O)c(O)c2)Oc2cc(O)cc(O)c21
rel: >
assay-value: 100
//
compound: Cc1cc(O)c(C(C)C)cc1N=Cc1ccccc1O
rel: =
assay-value: 1.82
//
compound: CC(=O)O[C@H]1C=CC23OC(=O)[C@]1(C)[C@H]2[C@H](C(=O)O)C12CC(=O)[C@@](CO)(CC[C@H]13)C2
rel: >
assay-value: 100
//
compound: COc1cc2c(cc1OCCCCCOc1cc3c(cc1OC)C(=O)N1CCC[C@H]1CN3)N=C[C@@H]1CCCN1C2=O
rel: =
assay-value: 75.1
//
compound: CCCn1c(N)c(C(=O)CNc2ccc(I)cc2)c(=O)[nH]c1=O
rel: >
assay-value: 24.3
//
compound: O=c1c2c3c(sc2n2c(-c4ccc(Br)cc4)nnc2n1Cc1ccccc1)CCCC3
rel: =
assay-value: 16.1
//
compound: COc1ccccc1NCC(=O)Nn1c(C)nc2ccc(S(=O)(=O)Nc3ccccc3OC)cc2c1=O
rel: >
assay-value: 100
//
compound: CCN(CC)CCC(=O)c1ccc(Oc2ccc(F)cc2)cc1
rel: =
assay-value: 34
//
compound: NCP(=O)(O)OCC(=O)O
rel: >
assay-value: 100
//
compound: O=C1c2ccn(CCCCN3CCC(O)CC3)c2C(=O)c2c1c(O)c1ccccc1c2O
rel: =
assay-value: 41.1
//
compound: c1ccc2nc(OCCN3CC3)ccc2c1
rel: =
assay-value: 9.44
//
compound: CC1CC[C@@]2(OC1)OC1C[C@H]3[C@@H]4CCC5CC(O)CC[C@]5(C)[C@H]4C/C(=N\N(C)C)[C@]3(C)C1[C@@H]2C (stereo partly specified)
rel: >
assay-value: 100
//
compound: CN(C)CCNc1nc2c(no[n+]2[O-])c2ccccc12
rel: =
assay-value: 45.1
//
compound: CC(=O)n1ccc2c(Cl)ncnc21
rel: >
assay-value: 100
//
compound: Oc1c(CN2CCOCC2)cc(COCc2ccccc2)c2cccnc12
rel: >
assay-value: 100
//
compound: N#Cc1c2c(c(-c3cccs3)n(C3OC(CO)C(O)C(O)C3O)c1=S)CCc1ccccc1-2 (stereo unspecified)
rel: >
assay-value: 88.8
//
compound: O=C(Oc1cccc(Cl)c1)c1cc2cc(CCl)ccc2oc1=O
rel: =
assay-value: 43.1
//
compound: OCC(O)C(O)C(O)C(O)/C=N/Nc1nc(O)c(/C=C2\C=Nc3ccccc32)[nH]1 (stereo unspecified)
rel: >
assay-value: 100

###

test system: TK-10 renal; test: NCI tumour cell line growth inhibition, 48 h
Below is a list of entries, each paired with its recorded GI50 value.

compound: C#CCN(Cc1nc2cc(C(F)(F)F)ccc2nc1-c1ccccc1)c1ccc(F)c(F)c1
GI50: > 100 µM
//
compound: O=C(NCCCCOCC#Cc1ccccc1C#CCS(=O)(=O)c1ccccc1)c1cc2ccccc2[nH]1
GI50: 23.5 µM
//
compound: C=CCCC(=O)N1C=CC(=O)[C@H](O)[C@@H]1/C=C/c1ccccc1
GI50: 21.5 µM
//
compound: C#Cc1cc2c(N)c(C(=O)c3cc(OC)c(OC)c(OC)c3)[nH]c2cc1OC
GI50: 17.8 µM
//
compound: Cc1sc2ncn(Cc3ccc(Cl)c(Cl)c3)c(=O)c2c1C
GI50: 1.81 µM
//
compound: O=C1c2ccn(CCCCN3CCC(O)CC3)c2C(=O)c2c1c(O)c1ccccc1c2O
GI50: 1.65 µM
//
compound: O=C(Nc1ccc(I)cc1F)c1cc(I)ccc1O
GI50: 1.49 µM
//
compound: COc1ccc(NC(=O)/C=C(C)/C=C/C=C(C)\C=C\C2=C(C)CCCC2(C)C)cc1
GI50: > 100 µM
//
compound: COc1ccc2c(c1)CC[C@@H]1[C@@H]2CC[C@]2(C)C=C(/C=C/C(=O)c3ccccc3)C[C@@H]12
GI50: 21.3 µM
//
compound: C1C[OH+]CC[OH+]CC[OH+]CC[OH+]CC[OH+]CC[OH+]1.[Cl-].[Nb+5]
GI50: > 100 µM
//
compound: C1CC[N-]CC1.CC(=N\O)/C(C)=N/O.CC(=N\O)/C(C)=N/O.[CH2-]CCN1CCOCC1.[Co+2]
GI50: > 100 µM
//
compound: COC(=O)[C@]12CC[C@@H](C)[C@H](C)[C@@H]1C1=CC[C@@H]3[C@@]4(C)CC(=O)[C@H](OC(=O)c5ccco5)[C@@]5(C)COC(=C45)C[C@@]3(C)[C@]1(C)CC2
GI50: 30.8 µM
//
compound: CCOC(=O)/C(C#N)=C/Nc1ccc(-c2nc3ccccc3[nH]2)cc1
GI50: 16.8 µM
//
compound: O=C(CC(=O)c1ccccc1)c1ccccc1
GI50: 20.5 µM
//
compound: CC(=O)N1CCN(CCOc2ccc(C3CCN(C4=Nn5c(nnc5C(F)(F)F)CC4)CC3)cc2)CC1
GI50: 7.31 µM
//
compound: COc1cc([C@@H]2c3cc4c(cc3C(OC3O[C@@H]5COC(C)O[C@H]5[C@H](O)[C@H]3O)C3COC(=O)[C@@H]32)OCO4)cc(OC)c1O (some centres not stated)
GI50: 3.56 µM
//
compound: c1ccc2nc(OCCN3CC3)ccc2c1
GI50: 4.89 µM
